- Target Of Assay: T1, SNAP-GAL1R H112^3.29A (human, UniProt P47211 1-349, H112^3.29A, Lumi4-Tb on the SNAP tag)
- T1 construct: also called H112A; source: HEK293, transfected, on cells; not shown: SNAP tag, N-terminal, kept
- T1 sequence (looked up): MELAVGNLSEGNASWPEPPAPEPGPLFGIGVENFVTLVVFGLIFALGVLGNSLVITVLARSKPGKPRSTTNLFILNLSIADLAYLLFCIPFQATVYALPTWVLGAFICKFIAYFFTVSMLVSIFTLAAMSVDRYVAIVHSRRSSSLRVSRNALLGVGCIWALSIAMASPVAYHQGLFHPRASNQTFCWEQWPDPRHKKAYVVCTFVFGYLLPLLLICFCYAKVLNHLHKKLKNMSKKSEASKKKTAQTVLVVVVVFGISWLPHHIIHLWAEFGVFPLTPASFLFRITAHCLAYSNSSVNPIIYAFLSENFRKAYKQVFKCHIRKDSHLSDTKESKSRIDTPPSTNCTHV
- Procedure Summary: AlphaScreen or HTRF; saturation binding: HEK293 cells transfected with SNAP-tagged receptor (WT or mutant) and labelled with SNAP-Lumi4-Tb, incubated with increasing concentrations of galanin-A2 in the presence or absence of 100 uM unlabeled galanin, 1 h at room temperature; HTRF ratio 665 nm/620 nm
- Experimental Setup: one partner purified
Readout Kind: pKd
Value format note: pKd is -log10 of concentration (mol/L); just state the number.

Write down pKd measured for item GWTLNSAGYLLGPHAVGNHRSFSDKNGLTSC (dye A2 on the additional C-terminal cysteine, numbers count on: the mature protein; additional cysteine at the C-terminal end of the peptide, carries the dye A2; source: synthetic peptide (synthesized by Vazyme, China))
7.22
